Test system: serotonin-2 receptors
Assay: Anti-serotonin (5-HT) action: 5-HT-induced contraction of isolated superior mesenteric artery
Settings: test drug 10^−7 M; contraction by 10^−5 M 5-HT taken as 100%; guinea pig superior mesenteric artery
As shown below, each of these compounds has a reported Anti 5-HT action (% of Control) value.

COMPOUND: Cn1ccc2c1C(=NO)CN(CCCN1CCC(C(=O)c3ccc(F)cc3)CC1)S2(=O)=O [Compound 26]
Anti 5-HT action (% of Control): 54.6 % of Control
--
COMPOUND: Cn1ccc2c1C(=NO)CN(CCCN1CCN(c3ccc(F)cc3)CC1)S2(=O)=O [Compound 25]
Anti 5-HT action (% of Control): 69.8 % of Control
--
COMPOUND: Cn1ccc2c1C(=O)CCN(CCCN1CCC(C(=O)c3ccc(F)cc3)CC1)S2(=O)=O [Compound 22]
Anti 5-HT action (% of Control): 75.3 % of Control

Q. Fill in: Anti 5-HT action (% of Control) on serotonin-2 receptors, entry Cn1ccc2c1C(=NO)CCN(CCCN1CCN(c3ccc(F)cc3)CC1)S2(=O)=O [Compound 27]
A. 76.2 % of Control

Q. // fetch Anti 5-HT action (% of Control) for Cn1ccc2c1C(O)CCN(CCCN1CCN(c3ccc(F)cc3)CC1)S2(=O)=O (centres unmarked) [Compound 30] ; system: serotonin-2 receptors
A. 83.5 % of Control

====

Collected Anti 5-HT action (% of Control) values appear next to each entry.
Tested on: serotonin-2 receptors
Test: Anti-serotonin (5-HT) action: 5-HT-induced contraction of isolated superior mesenteric artery
Conditions: test drug 10^−6 M; contraction by 10^−5 M 5-HT taken as 100%; guinea pig superior mesenteric artery

Please review the entries below; each comes with its answer.
MOLECULE: Cn1ccc2c1C(O)CCN(CCCN1CCN(c3ccc(F)cc3)CC1)S2(=O)=O (centres unmarked) [Compound 30]
Anti 5-HT action (% of Control): 37.2 % of Control
--
MOLECULE: Cn1ccc2c1C(=NO)CN(CCCN1CCN(c3ccc(F)cc3)CC1)S2(=O)=O [Compound 25]
Anti 5-HT action (% of Control): 19.6 % of Control

Q. Tell us which Anti 5-HT action (% of Control) value is on record for Cn1ccc2c1C(=O)CCN(CCCN1CCC(C(=O)c3ccc(F)cc3)CC1)S2(=O)=O [Compound 22]
A. 21.3 % of Control

Q. Return Anti 5-HT action (% of Control) for the following molecule: Cn1ccc2c1C(=NO)CN(CCCN1CCC(C(=O)c3ccc(F)cc3)CC1)S2(=O)=O [Compound 26]
A. 18.2 % of Control

Q. Return Anti 5-HT action (% of Control) for the following molecule: Cn1ccc2c1C(=NO)CCN(CCCN1CCN(c3ccc(F)cc3)CC1)S2(=O)=O [Compound 27]
A. 22.7 % of Control
